Test system: PF3D7_0420300 AP2 domain 1 (GST-tagged)
Test protocol: gcPBM binding intensity (ln(normalized median fluorescence intensity)); higher = stronger DNA binding
Whole data set: some 25,000 sequences, median “ln(normalized median fluorescence intensity)” near 9.3, cut for the highest 2% near 10. What follows is part of a selection rich in the highest values, with near analogues and random picks from the rest.
Classify as follows. Reported gcPBM binding intensity (ln) greater than or equal to 10: Criterion met. Reported gcPBM binding intensity (ln) below: Criterion not met.

Examples with answers:
CTTAAATTTTTAAATACACACATACACCCATACACA [CACACA_site4461]; Criterion not met
AATCACCAAATATGTACACACCTTAACATGTTTATA [CACACA_site5180]; Criterion not met
AATAAATATAAATACACACCCATATATATATATATA [CACACA_site5436]; Criterion not met

Task: Check if gcPBM binding intensity (ln) >= 10 (inclusive). Item: TAATATAACAAAAAAATAAAATAAAATAAAAAATAA [CACACA_negctrl_site109]
Result: Criterion not met

Task: Check if gcPBM binding intensity (ln) >= 10 (inclusive). Item: CTATACAATAAAAATTGTACATACATATATGTTATA [XGTACX_site5309]
Result: Criterion not met

Task: Check if gcPBM binding intensity (ln) >= 10 (inclusive). Item: TACTTACCAAAATACACACACACACTAGATATATAA [CACACA_site5096]
Result: Criterion met

Task: Check if gcPBM binding intensity (ln) >= 10 (inclusive). Item: ACCCATAAAAAGGATACACACACACCCACCCATATA [CACACA_site8205]
Result: Criterion met

Task: Check if gcPBM binding intensity (ln) >= 10 (inclusive). Item: ATTTATATTTGTATTTGTACTTATATTTATATTTAT [XGTACX_site1540]
Result: Criterion not met

Task: Check if gcPBM binding intensity (ln) >= 10 (inclusive). Item: TTTTTTTTTTTTTTTTTTTTCTTCATTTAATTTATA [GTGCAC_negctrl_site17]
Result: Criterion not met

Task: Check if gcPBM binding intensity (ln) >= 10 (inclusive). Item: AAAGAAGGTAAACACACACACACACCGACAAAAAAA [CACACA_site9255]
Result: Criterion met

###

System: PF3D7_0420300 AP2 domain 1 (GST-tagged)
Test protocol: gcPBM binding intensity (ln(normalized median fluorescence intensity)); higher = stronger DNA binding
Whole data set: some 25,000 sequences, median “ln(normalized median fluorescence intensity)” near 9.3, cut for the highest 2% near 10. The sample as a whole holds a higher share of the highest values than the screen did.
Property: gcPBM binding intensity (ln)
I only need the number, thanks.

TATTTATGTATATGCTGTACGCATTTGTGAAACATA [XGTACX_site4688]; 9.06
TACACGCATGGACACACACACACACCCATATATATA [CACACA_site4522]; 10.2
AAAAAAAACAAATACACACGCACACCGAAAAAAAAA [CACACA_site803]; 10

Task: // query gcPBM binding intensity (ln) value for entry TAAAACAATACTTTGTGCTTCTCTGGTTTTTTTTTT [GTGCAC_negctrl_site284]
Result: 9.26

Task: // query gcPBM binding intensity (ln) value for entry TAATCGAAACAAAGAACATGCAAACATATACCTATA [TGCATGCA_site894]
Result: 9.6

Task: // query gcPBM binding intensity (ln) value for entry TAAACAGACATACATACACACATACATACAGACATA [CACACA_site6997]
Result: 9.88

Task: // query gcPBM binding intensity (ln) value for entry CATATACATACACATACACACATACAGACATACACA [CACACA_site6919]
Result: 9.83

Task: // query gcPBM binding intensity (ln) value for entry GTAAAAAAATAGCACACACACAAAAACACGCACAAA [CACACA_site6723]
Result: 10.2
